tested on: mutant HIV-1 with I84V/L90M mutations; type: cell-based; details: fold difference in EC50 vs wild type, class symbols
MEASURED PARAMETER: I84V/L90M fold change

COMPOUND | I84V/L90M fold change
COc1ccc(S(=O)(=O)N(CC(C)C)CC(O)C(CC2=CCN(CCP(=O)(OCc3ccccc3)OCc3ccccc3)CC2)NC(=O)OC2COC3OCCC23)cc1 (centres unmarked) | + (>3 to ≦10)
CCC[C@@]1(CCc2ccccc2)CC(O)=C([C@H](CC)c2cccc(NS(=O)(=O)c3ccc(C(F)(F)F)cn3)c2)C(=O)O1 [Tipranavir] | + (>3 to ≦10)
CCCCOC(=O)C(C)OP(=O)(COc1ccc(CC(NC(=O)OC2COC3OCCC23)C(O)CN(CC(C)C)S(=O)(=O)c2ccc(OC)cc2)cc1)Oc1ccccc1 (centres unmarked) [drawing 609 R1=OPh R2=Lac-Bu] | − (≦3)
CCOP(=O)(OCC)c1ccc(CN(C)CC(NC(=O)OC2COC3OCCC23)C(O)CN(CC(C)C)S(=O)(=O)c2ccc(OC)cc2)cc1 (centres unmarked) | − (≦3)
COc1ccc(S(=O)(=O)N(CC(C)C)CC(O)C(Cc2ccc(OCP(=O)(O)OC(C)C(=O)O)cc2)NC(=O)OC2COC3OCCC23)cc1 (centres unmarked) [drawing 609 R1=OH R2=Lac-OH] | − (≦3)
CCOP(=O)(CON=Cc1ccc(CC(NC(=O)OC2COC3OCCC23)C(O)CN(CC(C)C)S(=O)(=O)c2ccc(OC)cc2)cc1)OCC (centres unmarked) [drawing 615 R1=Et R2=Et] | − (≦3)

Quick check: I84V/L90M fold change of CCOC(=O)C(NP(=O)(COc1ccc(CC(NC(=O)OC2COC3OCCC23)C(O)CN(CC(C)C)S(=O)(=O)c2ccc(OC)cc2)cc1)NC(C(=O)OCC)C(C)C)C(C)C (centres unmarked) [drawing 606 R1=Val-Et R2=Val-Et] ?
− (≦3)

Item under review: CCOC(=O)COP(=O)(COc1ccc(CC(NC(=O)OC2COC3OCCC23)C(O)CN(CC(C)C)S(=O)(=O)c2ccc(OC)cc2)cc1)OCC(=O)OCC (centres unmarked) [drawing 607 R1=Glc-Et R2=Glc-Et] . Reported I84V/L90M fold change?
− (≦3)

Can you share its I84V/L90M fold change? I mean this compound: CCOP(=O)(COc1ccc(CC(NC(=O)OC2COC3OCCC23)C(O)CN(CC(C)C)S(=O)(=O)c2ccc(OC)cc2)cc1)OCC (centres unmarked) [drawing 602 R1=OEt R2=OEt]
− (≦3)

If you can, please state the reported I84V/L90M fold change value of COC(=O)C(C)NP(=O)(COc1ccc(CC(NC(=O)OC2COC3OCCC23)C(O)CN(CC(C)C)S(=O)(=O)c2ccc(OC)cc2)cc1)Oc1ccccc1 (centres unmarked) [drawing 608 R1=OPh R2=Ala-Me] .
− (≦3)

Return reported I84V/L90M fold change; argument: COc1ccc(S(=O)(=O)N(CC(C)C)CC(O)C(Cc2ccc(OCP(=O)(NC(C)C(=O)OC(C)C)Oc3ccccc3)cc2)NC(=O)OC2COC3OCCC23)cc1 (centres unmarked) [drawing 608 R1=OPh R2=(D)Ala-iPr]
− (≦3)

====

system: mutant HIV-1 with I84V/L90M mutations; type: cell-based; details: fold difference in EC50 vs wild type, class symbols
MEASURED PARAMETER: I84V/L90M fold change

COMPOUND | I84V/L90M fold change
CCOP(=O)(CCC1=CCN(CC(NC(=O)OC2COC3OCCC23)C(O)CN(CC(C)C)S(=O)(=O)c2ccc(OC)cc2)CC1)OCC (stereo not drawn) | + (>3 to ≦10)
CCOC(=O)C(C)OP(=O)(COc1ccc(CC(NC(=O)OC2COC3OCCC23)C(O)CN(CC(C)C)S(=O)(=O)c2ccc(OC)cc2)cc1)OC(C)C(=O)OCC (stereo not drawn) [drawing 607 R1=Lac-Et R2=Lac-Et] | − (≦3)
COc1ccc(S(=O)(=O)N(CC(C)C)CC(O)C(Cc2ccc(NCP(=O)(OCc3ccccc3)OCc3ccccc3)cc2)NC(=O)OC2COC3OCCC23)cc1 (stereo not drawn) | − (≦3)
CCOP(=O)(Cc1ccc(NCC(NC(=O)OC2COC3OCCC23)C(O)CN(CC(C)C)S(=O)(=O)c2ccc(OC)cc2)cc1)OCC (stereo not drawn) | + (>3 to ≦10)
COc1ccc(S(=O)(=O)N(CC(C)C)CC(O)C(Cc2ccc(OCP(=O)(O)OC(C)C(=O)O)cc2)NC(=O)OC2COC3OCCC23)cc1 [drawing 609 R1=OH R2=(R)Lac-OH] | − (≦3)
CCCCOC(=O)CNP(=O)(COc1ccc(CC(NC(=O)OC2COC3OCCC23)C(O)CN(CC(C)C)S(=O)(=O)c2ccc(OC)cc2)cc1)Oc1ccccc1 (stereo not drawn) [drawing 608 R1=OPh R2=Gly-Bu] | − (≦3)

# evaluate next
Fill in the blank: the reported I84V/L90M fold change of CCCCOC(=O)C(C)NP(=O)(COc1ccc(CC(NC(=O)OC2COC3OCCC23)C(O)CN(CC(C)C)S(=O)(=O)c2ccc(OC)cc2)cc1)Oc1ccccc1 (stereo not drawn) [drawing 608 R1=OPh R2=Ala-Bu] is ____.
− (≦3)

====

target: WT (Human immunodeficiency virus type 1 group M subtype B, UniProt P04585); test: cell-based; set-up: species or system HIV; settings: MT-4, WT; read-out: Cell-based assay (MT-4) EC50/nM WT
EC50 by entry:
Field: numeric (nM). Do not append units.

COMPOUND | EC50 [nM]
Nc1n[nH]c2ccc(CN3C(=O)N(CCCOCP(=O)(O)O)C(Cc4ccccc4)C(O)C(O)C3Cc3ccccc3)cc12 (centres unmarked) [OCH2PO3H2] | 1070

Next compound, please.
Requested field: EC50. Item: CCOP(=O)(COCCCN1C(=O)N(Cc2ccc3[nH]nc(N)c3c2)C(Cc2ccccc2)C(O)C(O)C1Cc1ccccc1)OCC (centres unmarked) [OCH2PO3Et2]
356

====

target: WT (Human immunodeficiency virus type 1 group M subtype B)
MEASURED PARAMETER: pIC50
Kindly note that pIC50 refers to -log10 of the concentration in mol/L and answer with the value alone.

Lookup: pIC50 / WT (Human immunodeficiency virus type 1 group M subtype B) / CCOP(=O)(CCCNC(=O)c1cccc(CN2C(=O)N(Cc3ccc(O)cc3)C(Cc3ccccc3)C(O)C(O)C2Cc2ccccc2)c1)OCC (stereo not shown)
8.96

====

test system: WT; parameters: species or system HIV-1; details: read-out: Cell-based assay (MT-4) EC50/nM WT
MEASURED PARAMETER: EC50 (nM)
Dear colleague, please return just the value in nM, with no unit written.

Any idea what its EC50 is? The compound is O=C1N(Cc2ccccc2)C(Cc2ccccc2)C(O)C(O)C(Cc2ccc(O)cc2)N1Cc1ccccc1 (stereo not shown) [H / Ph / OH]
1260

====

tested on: mutant HIV-1 with I84V/L90M mutations; type: cell-based; settings: fold difference in EC50 vs wild type, class symbols
MEASURED PARAMETER: I84V/L90M fold change

MOLECULE | I84V/L90M fold change
CCOP(=O)(CNc1ccc(CC(NC(=O)OC2COC3OCCC23)C(O)CN(CC(C)C)S(=O)(=O)c2ccc(OC)cc2)cc1)OCC (centres unmarked) | − (≦3)
CCOC(=O)C(C)OP(=O)(Cc1ccc2c(c1)CCN(CC(NC(=O)OC1COC3OCCC13)C(O)CN(CC(C)C)S(=O)(=O)c1ccc(OC)cc1)C2)Oc1ccccc1 (centres unmarked) | + (>3 to ≦10)
COc1ccc(S(=O)(=O)N(CC(C)C)CC(O)C(Cc2ccc(OCP(=O)(OC(C)C)OC(C)C)cc2)NC(=O)OC2COC3OCCC23)cc1 (centres unmarked) [drawing 602 R1=OiPr R2=OiPr] | − (≦3)
CCOP(=O)(COc1ccc2c(c1)CCN(CC(NC(=O)OC1COC3OCCC13)C(O)CN(CC(C)C)S(=O)(=O)c1ccc(OC)cc1)C2)OCC (centres unmarked) | + (>3 to ≦10)

Endpoint output: I84V/L90M fold change of CCOP(=O)(Cc1ccc2c(c1)CCN(CC(NC(=O)OC1COC3OCCC13)C(O)CN(CC(C)C)S(=O)(=O)c1ccc(OC)cc1)C2)OCC (centres unmarked) . Value?
+ (>3 to ≦10)

This collection of values is drawn from patent US20070190523A1.
